Just for reference, PubChem BioAssay (NCI) is where these values come from.

Tested on: SK-MEL-5 melanoma
procedureText: NCI-60 one-dose screen, 48 h (100 = growth as untreated, 0 = no growth, -100 = all killed)
recordedConditions: 10 µM unless noted
The panel holds about 83,000 compounds, 20% with a hit somewhere; the sample as a whole holds those more often.
Give measured growth for each item. Keep answers brief.
A number alone suffices; assume %.

Request the reported growth associated with OCCCc1ccccc1 103

Quick one: growth of CCOC(=O)CN1CCC(C(=O)OCC)CC1 ? 103

Endpoint output: growth of O=S(=O)(O)c1ccc2cc(O)ccc2c1 . Value? 96.8

Consider the compound shown here: CCN(CC)CCO/N=C1\CC(c2ccc(OC)c(OC)c2)Oc2ccccc21 (configuration not stated) What is its recorded growth? 93.4

What value of growth has been reported for the following compound? CC(C)(C)C1CCC(=NO)CC1 (configuration not stated) 104

Return reported growth; argument: Cc1cc(-c2ccc(N=Nc3c(C)nn(-c4ccc(S(=O)(=O)O)cc4)c3O)c(C)c2)ccc1N=Nc1ccc(O)c(C(=O)O)c1 98.7

For the compound CN(C)CC(CN(C)C)C(O)c1ccccc1 (configuration not stated) , what growth is on record? 106

Suppose we examine the compound O=C(NC(=O)c1ccc(F)c(Cl)c1)NC1CC1 ; what growth value has been reported? 88

# get_value(readout='growth', item= CCCCC/C(C)=N\NC(N)=S ) 90

Request the reported growth associated with CS(=O)(=O)c1nsc(N)n1 102

# growth lookup, item Nc1ccccc1SC(CC(=O)c1ccccc1)c1cccc([N+](=O)[O-])c1 (configuration not stated) 96.3

# lookup: growth of COc1cc2c(cc1O)C(=O)CCCC2 102

Entry under review: CCCC(=O)OCC(COC(=O)CCC)OC(=O)CCC . Reported growth? 98.5

Look at this compound and give its reported growth. COc1cc2oc3cc(=O)cc4oc(-c5ccccc5)cc(c2c2c1CCC(c1ccccc1)O2)c43 (configuration not stated) 78

What growth value was documented for this compound, Nc1ccccc1SC1CC(=O)N(c2ccc(I)cc2)C1=O (configuration not stated) ? 87.9

Can you share its growth? I mean this compound: OCCS 100

# growth lookup, item CC(C)=NOC(C)C(=O)O (configuration not stated) 107

Which growth value is on record for COC(=O)c1nc(N)nc(C(=O)OC)c1C(=O)c1cccc2ccccc12 ? 98.9

Return reported growth; argument: COC(=O)c1nc(=S)[nH]c(C(=O)OC)c1C(=O)c1ccc(OC)cc1 97.3

// query growth value for entry CCc1ccc(OC(=O)CCl)cc1 105

# lookup: growth of CN(C=O)c1ccccc1 94.5

Query: growth; subject: Cc1cc(Cl)nc(Nc2ccccc2)n1 97.2

Record request: growth value, item N#Cc1c[nH]n2ccnc12 115

Which growth is reported for this compound? Cc1ccc([N+](=O)[O-])cc1Br 99.8

Look at this compound and give its reported growth. Nc1ccc2ccc(NS(=O)(=O)N3CCCCC3)cc2c1 25.3

Reported growth, compound COc1ccc(CCN=Cc2ccc(Cl)cc2)cc1OC : ____ 107

Quick one: growth of O=C(c1ccc(Cl)cc1)C1C(c2ccccc2)C1[N+](=O)[O-] (configuration not stated) ? 96.9
